target: HCV NS5bΔ55 (genotype 1b) (Hepatitis C virus genotype 1b, UniProt P26663)
Sequence (P26663 2420-2955, stated change not applied): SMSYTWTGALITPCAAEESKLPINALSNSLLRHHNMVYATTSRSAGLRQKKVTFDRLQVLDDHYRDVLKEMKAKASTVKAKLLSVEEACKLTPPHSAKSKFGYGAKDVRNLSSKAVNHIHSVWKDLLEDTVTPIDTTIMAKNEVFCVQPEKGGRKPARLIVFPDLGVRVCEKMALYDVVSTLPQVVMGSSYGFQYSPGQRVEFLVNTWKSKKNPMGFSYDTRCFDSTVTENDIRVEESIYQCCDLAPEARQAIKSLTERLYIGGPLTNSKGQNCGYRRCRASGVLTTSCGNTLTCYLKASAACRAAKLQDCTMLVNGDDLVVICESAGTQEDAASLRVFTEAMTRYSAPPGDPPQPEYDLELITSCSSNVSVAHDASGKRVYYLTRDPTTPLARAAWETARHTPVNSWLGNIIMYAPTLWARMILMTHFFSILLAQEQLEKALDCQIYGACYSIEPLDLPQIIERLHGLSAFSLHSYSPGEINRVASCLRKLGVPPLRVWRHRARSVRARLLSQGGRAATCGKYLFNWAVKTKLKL
MEASURED_ATTRIBUTE: IC50

STRUCTURE_AS_SMILES	MEASURED_ATTRIBUTE	MEAS_VALUE
C[C@@]1(O)[C@H](O)[C@@H](COP(=O)(O)OP(=O)(O)OP(=O)(O)O)O[C@H]1c1ccc2c(N)ncnn12	IC50	370 nM

* * *

test system: HCV RNA replication (HCV subgenomic replicon in MP-1 cells); assay: Cell-Based HCV RNA Replication Luciferase Reporter Assay; conditions: Hepatitis C virus; MP-1 cells, 72 h, luciferase readout; read-out: EC50
pEC50: −log10 of the molar value.
The entries below are paired with their reported pEC50.

STRUCTURE_AS_SMILES	STUDY_SYSTEM	pEC50
C[C@@]1(O)[C@H](O)[C@@H](CO)O[C@H]1c1cc(C#N)c2c(N)ncnn12	HCV RNA replication (HCV subgenomic replicon in MP-1 cells)	5.85
C[C@@]1(O)[C@H](O)[C@@H](CO)O[C@H]1c1cc(C(N)=O)c2c(N)ncnn12	HCV RNA replication (HCV subgenomic replicon in MP-1 cells)	8.21
C[C@@]1(O)[C@H](O)[C@@H](CO)O[C@H]1c1ccc2c(N)ncnn12	HCV RNA replication (HCV subgenomic replicon in MP-1 cells)	5.89
C[C@@]1(O)[C@H](O)[C@@H](CO)O[C@H]1c1cc(F)c2c(N)ncnn12	HCV RNA replication (HCV subgenomic replicon in MP-1 cells)	5.51
C[C@@]1(O)[C@H](O)[C@@H](CO)O[C@H]1c1cc(Cl)c2c(N)ncnn12	HCV RNA replication (HCV subgenomic replicon in MP-1 cells)	6.66
